quantityKind: melting point (°C)
Write it as a number; the unit °C goes unstated.

Q. State, in one line, measured melting point of "Cc1nc(N(C)C(=O)Cc2ccc(-c3cncnc3)cc2)sc1S(N)(=O)=O"
A. 234

Q. State, in one line, measured melting point of "CCOc1ccc(CC(=O)N(Cc2ccncc2)c2nc(C)c(S(N)(=O)=O)s2)cc1"
A. 122

Q. State, in one line, measured melting point of "CNS(=O)(=O)c1sc(N(C)C(=O)Cc2ccc(-c3cccc(OC)c3)cc2)nc1C"
A. 154

Q. State, in one line, measured melting point of "Cc1cnc(N)c(-c2ccc(CC(=O)N(C)c3nc(C)c(S(N)(=O)=O)s3)cc2)c1"
A. 183

Q. State, in one line, measured melting point of "CNS(=O)(=O)c1sc(N(C)C(=O)Cc2ccc(-c3cccc(N)c3)cc2)nc1C"
A. 193

Q. State, in one line, measured melting point of "Cc1nc(N(CCN2CCCC2=O)C(=O)Cc2ccc(-c3ccccc3)cc2)sc1S(N)(=O)=O"
A. 202

* * *

I'd appreciate it if you could supply melting point values for the items below.

Q. State, in one line, measured melting point of "CCOCCNS(=O)(=O)c1sc(N(C)C(=O)Cc2ccc(OCC)cc2)nc1C"
A. 125 to 127 °C

Q. State, in one line, measured melting point of "CCOCCCNS(=O)(=O)c1sc(N(C)C(=O)Cc2ccc(-c3cccc(OC)c3)cc2)nc1C"
A. 125 to 127 °C

Q. State, in one line, measured melting point of "CCOCCCNS(=O)(=O)c1sc(N(C)C(=O)Cc2ccc(-c3ccccc3)cc2)nc1C"
A. 139 to 140 °C
